Taken from patent US10231954B2.

assay-system: YES1 (Homo sapiens)
Sequence (P07947 whole entry, species assumed): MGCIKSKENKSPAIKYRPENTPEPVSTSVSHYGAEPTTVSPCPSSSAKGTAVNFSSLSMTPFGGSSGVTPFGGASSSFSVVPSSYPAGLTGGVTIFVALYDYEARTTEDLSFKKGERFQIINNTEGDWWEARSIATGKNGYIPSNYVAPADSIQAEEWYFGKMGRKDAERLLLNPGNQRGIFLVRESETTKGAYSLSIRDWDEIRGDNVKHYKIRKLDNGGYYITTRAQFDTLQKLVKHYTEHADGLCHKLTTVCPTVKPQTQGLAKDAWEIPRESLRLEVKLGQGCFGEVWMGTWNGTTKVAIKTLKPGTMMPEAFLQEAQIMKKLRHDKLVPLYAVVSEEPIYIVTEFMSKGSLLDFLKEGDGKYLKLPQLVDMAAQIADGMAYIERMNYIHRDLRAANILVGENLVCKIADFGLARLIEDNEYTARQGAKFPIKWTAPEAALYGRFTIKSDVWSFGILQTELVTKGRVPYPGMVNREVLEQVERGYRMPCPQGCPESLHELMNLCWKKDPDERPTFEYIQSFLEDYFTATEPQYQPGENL
protocol-text: Kinase profiling YES1
Format: biochemical
experimental-parameters: 100 micromolar inhibitor concentration; 100 is no change
parameter-measured: residual kinase activity, YES1
Give bare numbers.

Examples with their reported residual kinase activity, YES1 follow.
- compound: "O=C(Nc1nc2ccc(O)cc2s1)c1ccncc1 [Compound 08-42]"
  residual kinase activity, YES1: 79
- compound: "O=C(Nc1nc2cc(O)ccc2s1)c1ccccn1 [Compound 03-13]"
  residual kinase activity, YES1: 60

Each compound below has a recorded value; state its residual kinase activity, YES1.
1. O=C(Nc1nc2ccc(O)cc2s1)c1cccnc1 [Compound 08-44]
2. O=C(Nc1nc2ccc(O)cc2s1)c1ccccn1 [Compound 03-12]
3. O=C(Nc1nc2ccc(O)cc2s1)c1ccccc1 [Compound 03-60]

a:
1. 74
2. 73
3. 65

====

Hi there, I'd appreciate the recorded residual kinase activity, IRAK4 for every entry that follows.
assay-system: IRAK4 (Homo sapiens, UniProt Q9NWZ3)
Sequence (Q9NWZ3 whole entry, species assumed): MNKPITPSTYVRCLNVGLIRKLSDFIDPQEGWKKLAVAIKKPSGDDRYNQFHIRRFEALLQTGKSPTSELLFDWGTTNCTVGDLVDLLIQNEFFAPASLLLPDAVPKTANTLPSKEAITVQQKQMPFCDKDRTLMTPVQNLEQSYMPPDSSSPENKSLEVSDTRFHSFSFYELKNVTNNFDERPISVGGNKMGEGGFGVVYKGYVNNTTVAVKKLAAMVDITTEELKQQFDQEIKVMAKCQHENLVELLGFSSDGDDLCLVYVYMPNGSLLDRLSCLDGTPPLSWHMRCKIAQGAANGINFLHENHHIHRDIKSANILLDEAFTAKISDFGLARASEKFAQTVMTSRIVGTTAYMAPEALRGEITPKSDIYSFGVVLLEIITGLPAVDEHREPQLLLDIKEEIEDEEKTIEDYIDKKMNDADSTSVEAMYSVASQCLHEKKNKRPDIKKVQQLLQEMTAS
protocol-text: Kinase profiling IRAK4
Format: biochemical
experimental-parameters: 100 micromolar inhibitor concentration; 100 is no change
Numbers only.

- cpd-smiles: "O=C(Nc1nc2ccc(O)cc2s1)c1cccnc1"
  assay-system: "IRAK4 (Homo sapiens, UniProt Q9NWZ3)"
  residual kinase activity, IRAK4: 32
- cpd-smiles: "O=C(Nc1nc2cc(O)ccc2s1)c1ccncc1"
  assay-system: "IRAK4 (Homo sapiens, UniProt Q9NWZ3)"
  residual kinase activity, IRAK4: 69
- cpd-smiles: "O=C(Nc1nc2ccc(F)cc2s1)c1ccccc1"
  assay-system: "IRAK4 (Homo sapiens, UniProt Q9NWZ3)"
  residual kinase activity, IRAK4: 72
- cpd-smiles: "COc1ccc2sc(NC(=O)c3cccc(C(N)=O)c3)nc2c1"
  assay-system: "IRAK4 (Homo sapiens, UniProt Q9NWZ3)"
  residual kinase activity, IRAK4: 58
- cpd-smiles: "CC(=O)Nc1nc2cc(C)ccc2s1"
  assay-system: "IRAK4 (Homo sapiens, UniProt Q9NWZ3)"
  residual kinase activity, IRAK4: 51
- cpd-smiles: "CC(=O)Nc1nc2ccc(F)cc2s1"
  assay-system: "IRAK4 (Homo sapiens, UniProt Q9NWZ3)"
  residual kinase activity, IRAK4: 44

For each of the items listed, what is its residual kinase activity, IRAK4?
1. O=C(Nc1nc2cc(O)ccc2s1)c1ccccc1
2. O=C(Nc1nc2cc(O)ccc2s1)c1ccccn1
3. O=C(Nc1nc2ccc(O)cc2s1)c1ccccn1
4. O=C(Nc1nc2cc(O)ccc2s1)c1cccnc1
5. N#Cc1ccc2nc(NC(=O)c3ccccc3)sc2c1
6. CC(=O)Nc1nc2ccccc2s1
7. COC(=O)c1cccc(C(=O)Nc2nc3cc(OC)ccc3s2)c1
8. COc1ccc2sc(NC(=O)c3ccccc3)nc2c1

a:
[34, 55, 54, 42, 70, 65, 63, 57]

Could I get residual kinase activity, IRAK4 for every one of these entries?
1. O=C(Nc1nc2ccc(O)cc2s1)c1ccccc1
2. COc1ccc2nc(NC(=O)c3ccccc3)sc2c1
3. O=C(Nc1nc2ccc(O)cc2s1)c1ccncc1
4. COC(=O)c1cccc(C(=O)Nc2nc3ccc(F)cc3s2)c1
5. O=C(Nc1nc2ccc(C(F)(F)F)cc2s1)c1ccccc1

a:
1. 22
2. 46
3. 42
4. 96
5. 70

====

assay-system: CHK2 (Homo sapiens)
Sequence (O96017 whole entry, species assumed): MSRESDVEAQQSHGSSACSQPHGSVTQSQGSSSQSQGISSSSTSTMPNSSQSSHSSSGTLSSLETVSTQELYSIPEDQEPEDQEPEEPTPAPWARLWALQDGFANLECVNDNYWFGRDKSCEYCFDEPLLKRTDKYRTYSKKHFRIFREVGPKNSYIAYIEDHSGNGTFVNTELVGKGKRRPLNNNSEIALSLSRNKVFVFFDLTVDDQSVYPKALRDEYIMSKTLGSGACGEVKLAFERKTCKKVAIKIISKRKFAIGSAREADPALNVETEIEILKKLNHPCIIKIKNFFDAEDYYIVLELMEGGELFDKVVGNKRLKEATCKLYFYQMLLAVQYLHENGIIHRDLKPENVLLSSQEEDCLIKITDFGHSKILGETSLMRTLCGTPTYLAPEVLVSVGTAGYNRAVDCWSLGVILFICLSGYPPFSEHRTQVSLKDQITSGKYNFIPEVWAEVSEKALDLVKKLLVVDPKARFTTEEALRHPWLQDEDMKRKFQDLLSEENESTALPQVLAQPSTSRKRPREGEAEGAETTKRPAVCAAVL
protocol-text: Kinase profiling CHK2
Assay type: biochemical
experimental-parameters: 100 micromolar inhibitor concentration; 100 is no change
parameter-measured: residual kinase activity, CHK2
Answers are plain numbers.

Below are 3 compounds. Give each one its residual kinase activity, CHK2.
1. O=C(Nc1nc2cc(O)ccc2s1)c1ccccc1 [Compound 03-102]
2. O=C(Nc1nc2ccc(C(F)(F)F)cc2s1)c1ccccc1 [Compound 03-99]
3. CC(=O)Nc1nc2cc(C)ccc2s1 [Compound 03-76]

a:
26
94
65

Report residual kinase activity, CHK2 for each item below.
1. COc1ccc2sc(NC(=O)c3cccc(C(N)=O)c3)nc2c1 [Compound 03-113]
2. COC(=O)c1cccc(C(=O)Nc2nc3ccc(F)cc3s2)c1 [Compound 03-110]

a:
[98, 51]

====

assay-system: MINK1 (Homo sapiens, UniProt Q8N4C8)
Sequence (Q8N4C8 whole entry, species assumed): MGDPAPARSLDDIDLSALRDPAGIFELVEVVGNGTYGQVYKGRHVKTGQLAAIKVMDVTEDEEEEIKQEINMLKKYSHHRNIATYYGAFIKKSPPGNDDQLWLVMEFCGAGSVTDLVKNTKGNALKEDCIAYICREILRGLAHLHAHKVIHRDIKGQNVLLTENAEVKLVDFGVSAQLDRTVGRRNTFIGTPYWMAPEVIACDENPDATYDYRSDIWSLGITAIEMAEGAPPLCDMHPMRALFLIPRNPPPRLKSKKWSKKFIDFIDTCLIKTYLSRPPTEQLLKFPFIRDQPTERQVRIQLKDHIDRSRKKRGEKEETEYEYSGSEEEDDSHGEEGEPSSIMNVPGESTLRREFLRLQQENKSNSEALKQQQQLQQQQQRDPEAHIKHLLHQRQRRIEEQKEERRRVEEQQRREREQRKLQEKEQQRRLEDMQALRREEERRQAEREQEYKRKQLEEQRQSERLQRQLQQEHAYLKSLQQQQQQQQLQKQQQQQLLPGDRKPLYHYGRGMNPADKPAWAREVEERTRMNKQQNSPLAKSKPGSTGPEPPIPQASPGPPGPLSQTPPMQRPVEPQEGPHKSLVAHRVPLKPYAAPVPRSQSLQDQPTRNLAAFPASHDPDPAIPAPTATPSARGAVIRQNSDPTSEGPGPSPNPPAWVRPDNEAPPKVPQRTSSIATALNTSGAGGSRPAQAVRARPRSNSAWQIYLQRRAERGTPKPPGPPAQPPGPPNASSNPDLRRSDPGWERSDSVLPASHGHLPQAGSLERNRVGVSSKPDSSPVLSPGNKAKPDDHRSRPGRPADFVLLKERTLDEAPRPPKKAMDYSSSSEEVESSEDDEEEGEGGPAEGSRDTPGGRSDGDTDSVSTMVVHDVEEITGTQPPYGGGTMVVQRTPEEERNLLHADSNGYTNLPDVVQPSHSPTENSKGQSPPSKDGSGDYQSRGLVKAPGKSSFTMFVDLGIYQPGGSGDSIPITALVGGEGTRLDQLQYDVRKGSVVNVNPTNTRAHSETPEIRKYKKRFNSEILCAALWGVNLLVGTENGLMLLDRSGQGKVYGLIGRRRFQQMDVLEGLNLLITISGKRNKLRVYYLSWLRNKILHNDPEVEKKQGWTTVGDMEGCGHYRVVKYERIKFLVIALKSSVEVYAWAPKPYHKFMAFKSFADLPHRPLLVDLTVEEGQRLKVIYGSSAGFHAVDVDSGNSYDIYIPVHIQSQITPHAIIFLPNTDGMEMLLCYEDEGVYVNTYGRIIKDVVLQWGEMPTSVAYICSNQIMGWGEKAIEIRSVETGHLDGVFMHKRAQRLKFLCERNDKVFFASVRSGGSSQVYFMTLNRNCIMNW
protocol-text: Kinase profiling MINK1
Type: biochemical
experimental-parameters: 100 micromolar inhibitor concentration; 100 is no change; read-out: residual kinase activity, MINK1
parameter-measured: remaining activity at 100 µM (%)
Answers are plain numbers, in %.

The following molecules have reported results that may help.
- cpd-smiles: "CC(=O)Nc1nc2ccc(O)cc2s1"
  assay-system: "MINK1 (Homo sapiens, UniProt Q8N4C8)"
  test-result: 28
- cpd-smiles: "COc1ccc2sc(NC(C)=O)nc2c1"
  assay-system: "MINK1 (Homo sapiens, UniProt Q8N4C8)"
  test-result: 61
- cpd-smiles: "CC(=O)Nc1nc2cc(F)ccc2s1"
  assay-system: "MINK1 (Homo sapiens, UniProt Q8N4C8)"
  test-result: 65
- cpd-smiles: "CC(=O)Nc1nc2ccc(C#N)cc2s1"
  assay-system: "MINK1 (Homo sapiens, UniProt Q8N4C8)"
  test-result: 40
- cpd-smiles: "CC(=O)Nc1nc2cc(C(F)(F)F)ccc2s1"
  assay-system: "MINK1 (Homo sapiens, UniProt Q8N4C8)"
  test-result: 77

Here is another molecule to look at.
For reference, reported remaining activity at 100 µM for CC(=O)Nc1nc2ccc(C(F)(F)F)cc2s1 stands at 35

====

Field: residual kinase activity, TTBK1. Provide a value for each of the compounds that follow.
assay-system: TTBK1 (Homo sapiens, UniProt Q5TCY1)
Sequence (Q5TCY1 whole entry, species assumed): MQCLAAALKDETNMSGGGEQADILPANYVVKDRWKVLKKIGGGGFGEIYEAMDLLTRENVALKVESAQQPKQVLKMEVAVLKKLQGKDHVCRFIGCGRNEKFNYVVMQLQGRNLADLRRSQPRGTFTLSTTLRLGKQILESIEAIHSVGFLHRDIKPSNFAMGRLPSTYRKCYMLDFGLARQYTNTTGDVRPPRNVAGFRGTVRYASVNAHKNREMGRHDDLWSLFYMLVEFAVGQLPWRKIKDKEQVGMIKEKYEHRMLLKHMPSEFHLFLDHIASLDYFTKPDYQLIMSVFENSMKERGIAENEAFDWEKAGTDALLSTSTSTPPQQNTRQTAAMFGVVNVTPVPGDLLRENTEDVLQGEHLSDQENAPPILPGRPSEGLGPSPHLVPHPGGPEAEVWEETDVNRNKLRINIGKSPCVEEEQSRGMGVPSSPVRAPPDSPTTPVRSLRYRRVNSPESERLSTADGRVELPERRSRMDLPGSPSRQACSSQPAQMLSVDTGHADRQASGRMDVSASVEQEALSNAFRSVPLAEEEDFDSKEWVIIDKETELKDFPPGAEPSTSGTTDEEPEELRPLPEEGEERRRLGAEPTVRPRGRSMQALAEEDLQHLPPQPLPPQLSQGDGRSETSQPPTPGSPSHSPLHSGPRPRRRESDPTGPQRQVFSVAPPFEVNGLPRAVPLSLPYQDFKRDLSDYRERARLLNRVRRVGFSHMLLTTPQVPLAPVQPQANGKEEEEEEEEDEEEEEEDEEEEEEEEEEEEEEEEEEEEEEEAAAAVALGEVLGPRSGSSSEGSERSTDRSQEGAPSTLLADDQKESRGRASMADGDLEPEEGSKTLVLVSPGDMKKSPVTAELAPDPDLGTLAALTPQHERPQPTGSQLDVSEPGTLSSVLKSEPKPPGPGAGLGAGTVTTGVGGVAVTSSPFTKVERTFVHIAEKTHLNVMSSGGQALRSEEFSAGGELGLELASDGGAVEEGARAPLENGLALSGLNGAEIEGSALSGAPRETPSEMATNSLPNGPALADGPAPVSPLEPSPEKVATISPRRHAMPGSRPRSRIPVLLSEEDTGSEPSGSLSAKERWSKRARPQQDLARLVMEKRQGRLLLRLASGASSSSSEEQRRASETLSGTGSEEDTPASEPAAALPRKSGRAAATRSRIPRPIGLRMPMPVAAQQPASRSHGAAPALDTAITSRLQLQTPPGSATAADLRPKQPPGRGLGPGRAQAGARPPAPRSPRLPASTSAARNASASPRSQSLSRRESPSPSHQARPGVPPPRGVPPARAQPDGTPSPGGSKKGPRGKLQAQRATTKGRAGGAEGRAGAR
protocol-text: Kinase profiling TTBK1
Assay type: biochemical
experimental-parameters: 100 micromolar inhibitor concentration; 100 is no change
Numbers only.

Record excerpt, results attached:
- compound: "O=C(Nc1nc2cc(O)ccc2s1)c1cccnc1 [Compound 03-33]"
  test-result: 89
- compound: "O=C(Nc1nc2ccc(O)cc2s1)c1ccccc1 [Compound 03-60]"
  test-result: 46
- compound: "CC(=O)Nc1nc2cc(C)ccc2s1 [Compound 03-76]"
  test-result: 84
- compound: "O=C(Nc1nc2ccc(O)cc2s1)c1ccncc1 [Compound 08-42]"
  test-result: 70
- compound: "O=C(Nc1nc2ccc(O)cc2s1)c1ccccn1 [Compound 03-12]"
  test-result: 91

Quick batch: residual kinase activity, TTBK1 for everything below.
1. O=C(Nc1nc2ccc(O)cc2s1)c1cccnc1 [Compound 08-44]
2. CC(=O)Nc1nc2ccccc2s1 [Compound 03-32]
3. O=C(Nc1nc2cc(O)ccc2s1)c1ccccn1 [Compound 03-13]
4. O=C(Nc1nc2cc(O)ccc2s1)c1ccncc1 [Compound 03-11]

a:
1: 47; 2: 80; 3: 100; 4: 99

====

assay-system: PDK1 (Homo sapiens)
Sequence (O15530 1-556): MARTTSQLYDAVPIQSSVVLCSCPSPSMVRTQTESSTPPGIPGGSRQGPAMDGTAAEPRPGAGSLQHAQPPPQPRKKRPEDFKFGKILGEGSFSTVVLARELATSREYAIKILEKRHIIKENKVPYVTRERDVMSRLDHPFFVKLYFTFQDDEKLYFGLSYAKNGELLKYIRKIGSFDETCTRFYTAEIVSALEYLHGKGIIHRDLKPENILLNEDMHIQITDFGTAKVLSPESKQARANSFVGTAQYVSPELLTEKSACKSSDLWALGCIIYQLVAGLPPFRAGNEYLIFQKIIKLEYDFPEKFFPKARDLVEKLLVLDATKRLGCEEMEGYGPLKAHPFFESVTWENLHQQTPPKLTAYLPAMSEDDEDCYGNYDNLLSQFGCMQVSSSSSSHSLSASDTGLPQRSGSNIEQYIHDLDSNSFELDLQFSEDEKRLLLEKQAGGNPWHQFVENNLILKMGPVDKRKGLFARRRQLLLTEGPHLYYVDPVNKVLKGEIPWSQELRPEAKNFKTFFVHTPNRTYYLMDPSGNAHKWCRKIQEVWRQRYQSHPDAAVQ
protocol-text: Kinase profiling PDK1
Type: biochemical
experimental-parameters: 100 micromolar inhibitor concentration; 100 is no change
parameter-measured: residual kinase activity, PDK1
Answers are plain numbers.

- compound: "CC(=O)Nc1nc2ccc(F)cc2s1 [Compound 03-94]"
  test-result: 87

// for each compound below, give its residual kinase activity, PDK1
1. O=C(Nc1nc2cc(O)ccc2s1)c1cccnc1 [Compound 03-33]
2. CC(=O)Nc1cccc(C(=O)Nc2nc3ccc(O)cc3s2)c1 [Compound 03-58]
3. CC(=O)Nc1ccc(C(=O)Nc2nc3ccc(O)cc3s2)cc1 [Compound 03-74]
4. CC(=O)Nc1ccccc1C(=O)Nc1nc2ccc(O)cc2s1 [Compound 08-39]

a:
1. 100
2. 96
3. 93
4. 66

Required: residual kinase activity, PDK1, one value per compound below.
1. COC(=O)c1cccc(C(=O)Nc2nc3ccc(F)cc3s2)c1 [Compound 03-110]
2. O=C(Nc1nc2cc(O)ccc2s1)c1ccncc1 [Compound 03-11]
3. O=C(Nc1nc2cc(O)ccc2s1)c1ccccn1 [Compound 03-13]

a:
[123, 100, 104]

Could I get residual kinase activity, PDK1 for every one of these entries?
1. CC(=O)Nc1cccc(C(=O)Nc2nc3cc(O)ccc3s2)c1 [MS:LY-2-89]
2. O=C(Nc1nc2ccc(C(F)(F)F)cc2s1)c1ccccc1 [Compound 03-99]

a:
1. 44
2. 84
